Where do the numbers come from? From paper PMC6413085.

Assay: Pharmacokinetic study of DPTM in rats after i.v., i.m. and p.o. administration (HPLC-MS/MS, non-compartmental)
Assay type: in vivo
Settings: Sprague-Dawley, plasma, po; rat, 25 mg/kg, median (min–max)
readout.kind: Tmax (h)

>  <compound>
C=CC1(C)CC(OC(=O)CSc2nc(N)cc(N)n2)C2(C)C(C)CCC3(CCC(=O)C32)C(C)C1O (stereo not shown) [DPTM]

>  <recorded.measurement>
2

$$$$

---

Experiment: Pharmacokinetic study of DPTM in rats after i.v., i.m. and p.o. administration (HPLC-MS/MS, non-compartmental)
Type: in vivo
Conditions: Sprague-Dawley, plasma, im; rat, i.m., 75 mg/kg; read-out: CLR(0–t) renal clearance

>  <compound>
C=CC1(C)CC(OC(=O)CSc2nc(N)cc(N)n2)C2(C)C(C)CCC3(CCC(=O)C32)C(C)C1O (stereo not shown)

>  <unit.name>
mL/min

>  <CL renal>
46.2

$$$$
